This collection of values is drawn from ChEMBL document CHEMBL3763065.

Overview of recorded pIC50 for various molecules
target: Prostaglandin G/H synthase 1 (Ovis aries, UniProt P05979); assay: Inhibition of ovine COX-1 using arachidonic acid as substrate assessed as PGE2 production preincubated for 10 mins followed by substrate addition incubated for 2 mins by ELISA
Sequence (P05979 whole entry): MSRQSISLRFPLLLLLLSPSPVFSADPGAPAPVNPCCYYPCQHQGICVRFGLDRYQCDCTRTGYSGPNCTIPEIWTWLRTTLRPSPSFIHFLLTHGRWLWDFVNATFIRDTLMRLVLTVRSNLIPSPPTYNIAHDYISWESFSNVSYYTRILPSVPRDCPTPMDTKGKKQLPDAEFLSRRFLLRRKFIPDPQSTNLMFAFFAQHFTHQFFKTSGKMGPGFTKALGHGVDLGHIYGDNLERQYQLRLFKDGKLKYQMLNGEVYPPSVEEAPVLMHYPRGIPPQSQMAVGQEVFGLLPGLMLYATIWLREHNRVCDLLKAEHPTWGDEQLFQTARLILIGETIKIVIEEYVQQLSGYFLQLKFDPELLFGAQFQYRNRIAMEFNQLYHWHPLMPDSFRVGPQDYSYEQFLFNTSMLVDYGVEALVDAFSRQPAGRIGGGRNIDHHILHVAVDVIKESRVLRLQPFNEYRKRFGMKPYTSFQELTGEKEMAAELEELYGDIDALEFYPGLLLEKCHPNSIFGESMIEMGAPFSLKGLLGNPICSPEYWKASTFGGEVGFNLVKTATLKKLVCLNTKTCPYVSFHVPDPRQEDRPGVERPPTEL
pIC50: −log10 of the molar value.

| molecule | pIC50 |
| --- | --- |
| O=C(O)c1cc(/C=C/c2ccc(O)cc2)ccc1O | 3.38 |
| O=C(O)c1cc(/C=C/c2cc(O)cc(O)c2)ccc1O | 5.49 |
| COC(=O)c1cc(/C=C/c2cc(O)cc(O)c2)ccc1O | 5.39 |
| COc1ccc(/C=C/c2cc(OC)cc(OC)c2)cc1 [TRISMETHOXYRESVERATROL] | 5.91 |
